Attribution: ChEMBL document CHEMBL2406995

Test system: A549
Assay: Cytotoxicity against human A549 cells after 48 hrs by MTT assay
Type: functional, cell-based
Conditions: A549, 48 h
readout: IC50 (µM)

* CC[C@@]12CC[C@@H]3N(C)c4ccc([C@@H]5[C@H]6O[C@H]6[C@@]6(CC)CC(C(=O)OC)=C7Nc8c(cc(O)c(OC)c8OC)[C@@]78CCN5[C@@H]68)cc4[C@@]34CCN(C[C@H]3O[C@H]31)[C@@H]24 [CONOFOLINE] | 10.3
* CC[C@H]1C[C@@H]2CN3CCc4c([nH]c5c([C@H]6C[C@H]7[C@]8(C(=O)OC)CO[C@H](N(C)[C@H]8Cc8c6[nH]c6ccccc86)[C@@]76O[C@@H]6C)c(OC)ccc45)[C@](C(=O)OC)(C2)[C@H]13 | 3.52
* CC[C@H]1C[C@H]2C[C@H]3c4[nH]c5ccc(OC)cc5c4CCN([C@@H]13)[C@@H]2CC(C)=O | 28.5
* C/C=C1/CN(C)[C@H]2Cc3c([nH]c4ccccc34)[C@H](c3cc4[nH]c5c(c4cc3OC)CCN3C[C@H]4C[C@H](CC)[C@H]3[C@@]5(C(=O)OC)C4)C[C@H]1[C@]2(CO)C(=O)OC | 16.5
* C/C=C1/CN(C)[C@H]2Cc3c([nH]c4ccccc34)[C@H](c3cc4[nH]c5c(c4cc3OC)CCN3C[C@H]4C[C@H](CC)[C@H]3[C@H]5C4)C[C@H]1[C@]2(CO)C(=O)OC | 28.5
